Documented Papp at 18 h, 100 ug/ml across a set of compounds
assay: Permeability of the compound in pH 7.4 PBS/EtOH at 100 ug/ml after 18 hrs by PAMPA-BBB assay; type: ADME; details: dose 100 µg/ml, read-out: permeability
Give the number; ×10⁻⁶ cm/s is assumed, so skip it.

[
  {
    "item-smiles": "COc1cc2c(cc1OC)/C(=C/c1ccc(O)c(N3CCCCC3)c1)OC2=O",
    "Papp at 18 h, 100 ug/ml, ×10⁻⁶ cm/s": 12.3
  }
]

Consider the additional compound presented here.
[Q] Which measured Papp at 18 h, 100 ug/ml value corresponds to "COc1cc2c(cc1OC)/C(=C\c1ccc(O)c(N3CCCCC3)c1)OC2=O" ?
[A] 11.2

###

experiment: Inhibition of Cu2+-induced amyloid beta (1 to 42 residues) aggregation at 25 uM after 24 hrs by thioflavin T-based fluorescence assay relative to control
quantity: inhibition (%)
Give the number; % is assumed, so skip it.

Solved cases (5 shown):
[
  {
    "compound": "COc1cc2c(cc1OC)/C(=C/c1ccc(O)c(N3CCCCC3)c1)OC2=O",
    "quantity": "inhibition",
    "measure-unit": "%",
    "quantitative-readout": 19.9
  },
  {
    "compound": "COc1cc(/C=C/C(=O)CC(=O)/C=C/c2ccc(O)c(OC)c2)ccc1O",
    "quantity": "inhibition",
    "measure-unit": "%",
    "quantitative-readout": 58
  },
  {
    "compound": "COc1cc2c(cc1OC)C(Cc1ccc(N3CCOCC3)c(O)c1)OC2=O (stereo not drawn)",
    "quantity": "inhibition",
    "measure-unit": "%",
    "quantitative-readout": 9.5
  },
  {
    "compound": "COc1cc2c(cc1OC)C(Cc1ccc(N3CCCCC3)c(O)c1)OC2=O (stereo not drawn)",
    "quantity": "inhibition",
    "measure-unit": "%",
    "quantitative-readout": 12.8
  },
  {
    "compound": "CCN(CC)c1ccc(CC2OC(=O)c3cc(OC)c(OC)cc32)cc1O (stereo not drawn)",
    "quantity": "inhibition",
    "measure-unit": "%",
    "quantitative-readout": 14.3
  }
]

[Q] Which measured inhibition value corresponds to COc1cc2c(cc1OC)C(Cc1ccc(N3CCCC3)c(O)c1)OC2=O (stereo not drawn) ?
[A] 18.5

###

biological target: Acetylcholinesterase (Electrophorus electricus) (UniProt O42275); assay: Inhibition of Electrophorus electricus AChE at 10 uM using acetylthiocholine iodide as substrate incubated for 15 mins by Ellman's method relative to control
Sequence (O42275 24-633 limits assumed): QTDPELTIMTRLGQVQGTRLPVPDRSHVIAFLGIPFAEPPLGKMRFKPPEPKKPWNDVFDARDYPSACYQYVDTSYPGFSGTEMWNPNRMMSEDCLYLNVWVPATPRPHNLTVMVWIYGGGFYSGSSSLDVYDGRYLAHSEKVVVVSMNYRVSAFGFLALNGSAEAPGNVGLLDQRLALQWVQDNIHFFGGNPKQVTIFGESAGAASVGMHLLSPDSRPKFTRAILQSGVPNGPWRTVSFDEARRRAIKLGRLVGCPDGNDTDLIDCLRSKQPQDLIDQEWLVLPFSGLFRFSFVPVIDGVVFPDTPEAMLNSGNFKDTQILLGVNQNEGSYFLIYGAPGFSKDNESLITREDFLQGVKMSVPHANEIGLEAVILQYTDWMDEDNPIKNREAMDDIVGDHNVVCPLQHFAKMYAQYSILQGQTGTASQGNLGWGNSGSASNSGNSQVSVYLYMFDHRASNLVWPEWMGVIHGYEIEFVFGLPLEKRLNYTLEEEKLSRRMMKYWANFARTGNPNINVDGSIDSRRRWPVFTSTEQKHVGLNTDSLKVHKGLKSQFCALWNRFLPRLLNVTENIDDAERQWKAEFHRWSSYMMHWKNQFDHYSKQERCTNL
Documented inhibition across a set of compounds
// unit must come after the numeric part

[
  {
    "compound": "CCN(CC)c1c(O)cccc1/C=C1/OC(=O)c2cc(OC)c(OC)cc21",
    "inhibition": "46.9%"
  },
  {
    "compound": "COc1cc2c(cc1OC)/C(=C\\c1cccc(O)c1N1CCOCC1)OC2=O",
    "inhibition": "40.8%"
  },
  {
    "compound": "COc1cc2c(cc1OC)/C(=C/c1cccc(O)c1N1CCOCC1)OC2=O",
    "inhibition": "15.1%"
  }
]

[Q] Which measured inhibition value corresponds to COc1cc2c(cc1OC)C(Cc1cccc(O)c1N1CCCC1)OC2=O (stereo not given) ?
[A] 19.4%
